- ASSAY TARGET: human F508del-CFTR (Homo sapiens, UniProt P13569, DEL508-508)
- Sequence (P13569 with tags, fused parts or gaps DEL508-508): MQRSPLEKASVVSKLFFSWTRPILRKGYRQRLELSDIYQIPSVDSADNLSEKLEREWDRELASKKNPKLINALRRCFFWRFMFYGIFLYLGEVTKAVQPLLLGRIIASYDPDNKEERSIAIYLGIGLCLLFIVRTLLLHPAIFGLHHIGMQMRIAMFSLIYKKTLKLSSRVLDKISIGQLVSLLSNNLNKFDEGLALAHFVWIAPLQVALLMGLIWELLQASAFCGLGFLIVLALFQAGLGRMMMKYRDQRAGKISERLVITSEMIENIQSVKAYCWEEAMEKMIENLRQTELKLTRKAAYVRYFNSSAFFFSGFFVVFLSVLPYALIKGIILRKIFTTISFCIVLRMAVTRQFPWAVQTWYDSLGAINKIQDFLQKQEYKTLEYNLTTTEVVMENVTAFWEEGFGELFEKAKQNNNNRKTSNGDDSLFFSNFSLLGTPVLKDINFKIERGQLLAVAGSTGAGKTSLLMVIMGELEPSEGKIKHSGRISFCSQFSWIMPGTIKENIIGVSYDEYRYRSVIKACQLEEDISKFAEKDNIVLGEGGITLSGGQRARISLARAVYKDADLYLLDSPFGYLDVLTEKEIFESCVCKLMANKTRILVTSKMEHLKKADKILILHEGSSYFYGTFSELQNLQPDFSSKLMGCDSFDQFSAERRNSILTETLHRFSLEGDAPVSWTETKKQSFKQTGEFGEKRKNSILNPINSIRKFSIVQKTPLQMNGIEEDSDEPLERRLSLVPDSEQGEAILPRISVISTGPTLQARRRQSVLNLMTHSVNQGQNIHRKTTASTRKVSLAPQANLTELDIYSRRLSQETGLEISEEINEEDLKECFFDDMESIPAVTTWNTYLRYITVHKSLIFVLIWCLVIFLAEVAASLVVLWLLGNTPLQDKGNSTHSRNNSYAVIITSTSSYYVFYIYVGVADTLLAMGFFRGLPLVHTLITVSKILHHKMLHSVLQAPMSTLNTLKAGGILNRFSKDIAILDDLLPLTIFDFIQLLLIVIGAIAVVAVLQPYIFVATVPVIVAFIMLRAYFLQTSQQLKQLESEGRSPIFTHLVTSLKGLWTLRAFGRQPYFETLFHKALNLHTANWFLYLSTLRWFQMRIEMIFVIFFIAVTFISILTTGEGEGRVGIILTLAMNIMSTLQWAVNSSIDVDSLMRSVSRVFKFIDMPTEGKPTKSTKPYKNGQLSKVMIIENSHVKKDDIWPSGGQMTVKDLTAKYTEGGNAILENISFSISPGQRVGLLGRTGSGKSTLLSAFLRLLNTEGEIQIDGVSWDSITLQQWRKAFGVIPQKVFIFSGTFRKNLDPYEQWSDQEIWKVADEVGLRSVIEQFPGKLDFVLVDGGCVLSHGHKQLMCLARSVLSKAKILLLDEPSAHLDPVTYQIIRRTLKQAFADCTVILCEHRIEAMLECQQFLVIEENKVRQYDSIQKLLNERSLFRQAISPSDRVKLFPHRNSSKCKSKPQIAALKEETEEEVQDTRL
- PROTOCOL: F508del-CFTR cell surface expression (corrector activity), DiscoveRx ß-galactosidase complementation chemiluminescence assay in recombinant U2OS cell line
- EXPERIMENTAL SETUP: EC50, F508del-CFTR cell surface expression, U2OS cell line, 16h compound incubation; geomean values
READOUT TYPE: pEC50
Answers are plain numbers, as −log10 of the molar value.

Worked cases, answers included:
MOLECULE	pEC50
COc1cccc2c1C(=O)N[C@H](C(=O)NCCc1ccc(C)cc1)CC(=O)N(C)[C@@H](CC(C)C)C(=O)N(CCC1CCCCC1)CC(=O)N[C@H](Cc1ccccc1)CO2 [Example 202]	6.73
COc1cccc2c1C(=O)N[C@H](C(=O)NCCc1ccc3c(c1)COC3)CC(=O)N(C)[C@@H](CC(C)C)C(=O)N(CCC1CCCCC1)CC(=O)N[C@H](Cc1ccccc1)CO2 (racemic) [Example 13]	6.57

Batch lookup, pEC50 per entry.
1. CC(C)C[C@H]1C(=O)N(C)C2(CC2)C(=O)N[C@H](Cc2ccccc2)COc2cnc3ccc(F)cc3c2C(=O)N[C@H](C(=O)NCCc2cccc(-n3nccn3)c2)CC(=O)N1C [Example 136]
2. COc1cccc(CCNC(=O)[C@@H]2CC(=O)N(C)[C@@H](CC(C)C)C(=O)N3CCN(C(C)C)C[C@@H]3C(=O)N[C@H](Cc3ccccc3)COc3ccc4nc(C)oc4c3C(=O)N2)c1 [Example 352]
3. COc1cccc2c1C(=O)N[C@H](C(=O)NCCc1ccc(N(C)C)cc1)CC(=O)N(C)[C@@H](CC(C)C)C(=O)N(CCC1CCCCC1)CC(=O)N[C@H](Cc1ccccc1)CO2 [Example 203]
4. COc1cccc(CCNC(=O)[C@@H]2CC(=O)N(C)[C@@H](CC(C)C)C(=O)N(C)CC(=O)N[C@H](Cc3ccccc3)COc3cc4c(cc3C(=O)N2)OCO4)c1 [Example 224]
5. COc1cc2c(cc1OC)C(=O)N[C@H](C(=O)NCCc1ccc3c(c1)CCO3)CC(=O)N(C)[C@@H](CC(C)C)C(=O)N(C)CC(=O)N[C@H](Cc1ccccc1)CO2 (mixture of isomers) [Example 152]
6. COc1ccc(CCNC(=O)[C@@H]2CC(=O)N(C)[C@@H](CC(C)C)C(=O)N(CCC3CCCCC3)CC(=O)N[C@H](Cc3ccccc3)COc3cccc(OC)c3C(=O)N2)cc1 (racemic) [Example 219]
7. COc1cccc2c1C(=O)N[C@H](C(=O)NCCc1ccc(-n3cccn3)cc1)CC(=O)N(C)[C@@H](CC(C)C)C(=O)N(CCC1CCCCC1)CC(=O)N[C@H](Cc1ccccc1)CO2 [Example 217]
8. CC(C)C[C@H]1C(=O)N2CCCC[C@@H]2C(=O)N[C@H](Cc2ccccc2)COc2cnc3ccccc3c2C(=O)N[C@H](C(=O)NCCc2noc(C3CCC3)n2)CC(=O)N1C [Example 128]

Solution:
6.57
6.53
6.74
6.47
6.18
6.69
6.69
6.72

----------
Assign Emax to each entry below.
- ASSAY TARGET: human F508del-CFTR (Homo sapiens, UniProt P13569, DEL508-508)
- PROTOCOL: F508del-CFTR cell surface expression (corrector activity), DiscoveRx ß-galactosidase complementation chemiluminescence assay in recombinant U2OS cell line
- EXPERIMENTAL SETUP: U2OS, in relation to Emax of corrector lumacaftor (=100%); arithmetic mean values
Answers are plain numbers, in %.

Dear colleague, could you please provide Emax for the molecules listed below?
1. Cc1cc(CCNC(=O)[C@@H]2CC(=O)N(C)[C@@H](CC(C)C)C(=O)N3CCN(S(=O)(=O)c4ccc5c(c4)OCCN5C)C[C@@H]3C(=O)N[C@H](Cc3ccccc3)COc3cnc4ccccc4c3C(=O)N2)on1
2. [2H]C([2H])([2H])Oc1nc(C)cc2c1C(=O)N[C@H](C(=O)NCCc1nc(C3CC3)no1)CC(=O)N(C)[C@@H](CC(C)C)C(=O)N1CCCC[C@@H]1C(=O)N[C@H](Cc1ccccc1)CO2

Solution:
[295, 291]

----------
- ASSAY TARGET: human F508del-CFTR (Homo sapiens, UniProt P13569, DEL508-508)
- PROTOCOL: F508del-CFTR cell surface expression (corrector activity), DiscoveRx ß-galactosidase complementation chemiluminescence assay in recombinant U2OS cell line
- EXPERIMENTAL SETUP: EC50, F508del-CFTR cell surface expression, U2OS cells, 16h compound incubation; geomean of several measurements
READOUT TYPE: pEC50
One number for each entry, as −log10 of the molar value.

Worked examples, 2 compounds total:
SMILES RECORD	pEC50
CC(C)C[C@H]1C(=O)N(C)[C@H](CCc2nc(-c3ccc(F)cn3)no2)C(=O)N[C@H](Cc2ccccc2)COc2cnc3ccc(F)cc3c2C(=O)N[C@H](C(=O)NCCc2noc(C3CC3)n2)CC(=O)N1C	6.95
Cc1cc2c(c3cccnc13)C(=O)N[C@H](C(=O)NCCn1nnc(C3CC3)n1)CC(=O)N(C)[C@@H](CC(C)C)C(=O)N(C)[C@H](Cc1nc(C(F)(F)F)no1)C(=O)N[C@H](Cc1ccccc1)CO2	7.59

Exercise: Any idea what its pEC50 is? The compound is CC(C)C[C@H]1C(=O)N(C)[C@H](C)C(=O)N[C@H](Cc2ccccc2)COc2ccc3ncc(F)cc3c2C(=O)N[C@H](C(=O)NCCc2nc(C3CC3)no2)CC(=O)N1C
Solution: 6.58

----------
Give measured Emax for each item. Keep answers brief.
- ASSAY TARGET: human F508del-CFTR (Homo sapiens, UniProt P13569, DEL508-508)
- PROTOCOL: F508del-CFTR cell surface expression (corrector activity), DiscoveRx ß-galactosidase complementation chemiluminescence assay in recombinant U2OS cell line
- EXPERIMENTAL SETUP: U2OS, in relation to the Emax of the corrector lumacaftor (=100%); U2OS cell line, 16h compound incubation; arithmetic mean values
One number for each entry, in %.

> print(dat)
                              smiles.record                              assay.target  readout.type  reported.measurement
1  CC(C)C[C@H]1C(=O)N(C)CC(=O)N[C@H](Cc2ccccc2)COc2cccc(F)c2C(=O)N[C@H](C(=O)NCCc2ccc3c(c2)OCO3)CC(=O)N1C  human F508del-CFTR (Homo sapiens, UniProt P13569, DEL508-508)          Emax                   167

Below are some compounds; for each one, tell me its Emax.
1. COc1cccc2c1C(=O)N[C@H](C(=O)NCCc1ccc3c(c1)OCO3)CC(=O)N(C)CC(=O)N(CCC1CCCCC1)CC(=O)N[C@H](Cc1ccccc1)CO2
2. COc1cccc(CCNC(=O)[C@@H]2CC(=O)N(C)[C@@H](CC(C)C)C(=O)N(CCC3CCCCC3)CC(=O)N[C@H](Cc3ccccc3)COc3cc(C)ncc3C(=O)N2)c1

Solution:
1: 116; 2: 185

----------
- ASSAY TARGET: human F508del-CFTR (Homo sapiens, UniProt P13569, DEL508-508)
- PROTOCOL: F508del-CFTR cell surface expression (corrector activity), DiscoveRx ß-galactosidase complementation chemiluminescence assay in recombinant U2OS cell line;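 further: U2OS cells co-expressing ProLink-tagged F508del-CFTR and a membrane-anchored enzyme acceptor, where more surface CFTR restores β-galactosidase activity measured by chemiluminescence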
- EXPERIMENTAL SETUP: U2OS, in relation to the Emax of the corrector lumacaftor (=100%); U2OS cells, 16h compound incubation; arithmetic mean
READOUT TYPE: Emax (%)
Numbers only, in %.

The cases that follow already have their Emax on record.
COMPOUND	READOUT UNITS	Emax
COc1nc(C)cc2c1C(=O)N[C@H](C(=O)NCCc1cc(C)no1)CC(=O)N(C)[C@@H](CC(C)C)C(=O)N(C)[C@H](CC(C)(C)C)C(=O)N[C@H](Cc1ccccc1)CO2 [Example 876]	%	317
COc1noc(CCNC(=O)[C@@H]2CC(=O)N(C)[C@@H](CC(C)C)C(=O)N3CCCC[C@@H]3C(=O)N[C@H](Cc3ccccc3)COc3ccc4ncc(F)cc4c3C(=O)N2)c1F [Example 973]	%	446

Below are 3 compounds. Give each one its Emax.
1. COc1noc(CCNC(=O)[C@@H]2CC(=O)N(C)[C@@H](CC(C)C)C(=O)N(C)[C@H](CC(F)F)C(=O)N[C@H](Cc3ccccc3)COc3cc(C)nc(OC)c3C(=O)N2)c1F [Example 968]
2. COc1cc(CCNC(=O)[C@@H]2CC(=O)N(C)[C@@H](CC(C)C)C(=O)N(C)[C@H](CCc3nc(C4CCCC4)no3)C(=O)N[C@H](Cc3ccccc3)COc3ccnc(OC)c3C(=O)N2)on1 [Example 884]
3. COc1cc(CCNC(=O)[C@@H]2CC(=O)N(C)[C@@H](CC(C)C)C(=O)N(C)[C@H](CC3CCC3)C(=O)N[C@H](Cc3ccccc3)COc3cc(C)nc(OC)c3C(=O)N2)on1 [Example 980]

Solution:
1. 478
2. 385
3. 435
